Where these numbers come from: PubChem BioAssay (NCI)

Reported TGI values follow for various compounds
Tested on: UACC-257 melanoma
Assay: NCI tumour cell line growth inhibition, 48 h
Measured endpoint: TGI (µM)

[[record]]
compound = "C[N+]1=C(/C=C\\C=C\\c2ccccc2)C(C)(C)c2ccccc21"
subject_of_test = "UACC-257 melanoma"
value_comparator = "="
value_observed = 4.52

[[record]]
compound = "O=C(OC[C@H]1O[C@H](OC(=O)c2cc(O)c(O)c(OC(=O)c3cc(O)c(O)c(O)c3)c2)[C@H](OC(=O)c2cc(O)c(O)c(OC(=O)c3cc(O)c(O)c(O)c3)c2)[C@@H](OC(=O)c2cc(O)c(O)c(OC(=O)c3cc(O)c(O)c(O)c3)c2)[C@@H]1OC(=O)c1cc(O)c(O)c(OC(=O)c2cc(O)c(O)c(O)c2)c1)c1cc(O)c(O)c(OC(=O)c2cc(O)c(O)c(O)c2)c1"
subject_of_test = "UACC-257 melanoma"
value_comparator = ">"
value_observed = 25

[[record]]
compound = "CCNC(=O)O[C@H]1CN[C@H](C#Cc2cc3ncnc(Nc4ccc(OCc5cccc(F)c5)c(Cl)c4)c3s2)C1"
subject_of_test = "UACC-257 melanoma"
value_comparator = ">"
value_observed = 25

[[record]]
compound = "CCCCCCCCCCCCC(O)[C@H]1CC[C@H](C(O)CCCCCC(=O)CCCCC2CC(C(C)=O)C(=O)O2)O1 (some centres undefined)"
subject_of_test = "UACC-257 melanoma"
value_comparator = "="
value_observed = 19.1

[[record]]
compound = "CN(C)CCCNC(=O)c1cc(NC(=O)c2cc(NC(=O)CCNS(=O)(=O)c3ccc4c(c3)C(=O)c3ccccc3C4=O)cn2C)cn1C"
subject_of_test = "UACC-257 melanoma"
value_comparator = ">"
value_observed = 100

[[record]]
compound = "N#C/C(=C\\c1ccc(Br)cc1)n1nnc2ccc(F)cc21"
subject_of_test = "UACC-257 melanoma"
value_comparator = "="
value_observed = 4.25

[[record]]
compound = "Oc1ccc(-c2nc3ccc(Cl)cc3s2)cc1"
subject_of_test = "UACC-257 melanoma"
value_comparator = "="
value_observed = 34.4

[[record]]
compound = "Nn1c(Cc2ccc([N+](=O)[O-])cc2)n[nH]c1=O"
subject_of_test = "UACC-257 melanoma"
value_comparator = ">"
value_observed = 100

[[record]]
compound = "CC1=C(C)Cc2c(O)ccc(O)c2C1"
subject_of_test = "UACC-257 melanoma"
value_comparator = "="
value_observed = 32.2

[[record]]
compound = "O=C1c2ccc(O)c(O)c2C(=O)c2c(O)ccc(O)c21"
subject_of_test = "UACC-257 melanoma"
value_comparator = "="
value_observed = 49.3

[[record]]
compound = "CC1OC(n2cc(F)c(=O)[nH]c2=O)C=CC1=O (centres undefined)"
subject_of_test = "UACC-257 melanoma"
value_comparator = "="
value_observed = 32.2

[[record]]
compound = "Oc1ccc2oc3ncc(Br)c(-c4ccccc4)c3c2c1"
subject_of_test = "UACC-257 melanoma"
value_comparator = ">"
value_observed = 100

[[record]]
compound = "C=C1CCC([N+](=O)[O-])[C@](C)(N=O)CC[C@@H]2C1CC2(C)C (some centres undefined)"
subject_of_test = "UACC-257 melanoma"
value_comparator = "="
value_observed = 46.2

[[record]]
compound = "CC(=O)OCc1ccc2oc(=O)c(C(=O)Oc3ccccc3)cc2c1"
subject_of_test = "UACC-257 melanoma"
value_comparator = ">"
value_observed = 100

[[record]]
compound = "CCN1CCC(O)(c2ccc(Cl)cc2)C(C(=O)c2ccc(Cl)cc2)C1 (centres undefined)"
subject_of_test = "UACC-257 melanoma"
value_comparator = ">"
value_observed = 100

[[record]]
compound = "NC(N)=Nc1ccc(CC(N)C(=O)O)cc1 (centres undefined)"
subject_of_test = "UACC-257 melanoma"
value_comparator = ">"
value_observed = 12.5

[[record]]
compound = "COc1ccc(C(=O)/C=C/c2cc(O)c(O)c(F)c2F)c(OC)c1"
subject_of_test = "UACC-257 melanoma"
value_comparator = "="
value_observed = 41.8

[[record]]
compound = "CC(=O)C1CC[C@@H]2[C@H](CC[C@]3(C)[C@@H](O)CC[C@@H]23)[C@H]1C(=O)O (some centres undefined)"
subject_of_test = "UACC-257 melanoma"
value_comparator = ">"
value_observed = 100

[[record]]
compound = "NCCCNCCCCNC(=O)C(O)NC(=O)CCCCCCN=C(N)N (centres undefined)"
subject_of_test = "UACC-257 melanoma"
value_comparator = ">"
value_observed = 5000

